Would you mind telling me the reported solubility of each entry?
# assay_comment: Water solubility
# Format: physicochemical
# run_parameters: read-out: Water solublity
Provide the reading as a plain figure in µg/mL.

For "CC[C@@]1(O)C(=O)OCc2c1cc1n(c2=O)Cc2cc3ccccc3nc2-1" , what is its reported solubility?
107

What do we get for "CC[C@]1(O)C[C@H]2CN(CCc3c([nH]c4ccccc34)[C@@](C(=O)OC)(c3cc4c(cc3OC)N(C=O)[C@H]3[C@@](O)(C(=O)OC)[C@H](OC(C)=O)[C@]5(CC)C=CCN6CC[C@]43[C@@H]65)C2)C1" ?
30

What do you have for "C#Cc1cccc(Nc2ncnc3cc(OCCOC)c(OCCOC)cc23)c1" ?
400

Let us now turn to "CC(=O)O[C@H]1C(=O)[C@@]2(C)[C@H]([C@H](OC(=O)c3ccccc3)[C@]3(O)C[C@H](OC(=O)[C@H](O)[C@@H](NC(=O)c4ccccc4)c4ccccc4)C(C)=C1C3(C)C)[C@]1(OC(C)=O)CO[C@@H]1C[C@@H]2O"
5.56
